system: Jnk1 + Jnk2; assay: Cell-free kinase assay (ALPHA technology), Jnk1 + Jnk2; type: biochemical, human; conditions: 10 μM ATP
pIC50: −log10 of the molar value.
property_name: pIC50

# value lookup — system Jnk1 + Jnk2, readout pIC50, item CCNC(=O)Nc1ccc2ncc(Nc3cccc(OC(C)C)c3)nc2n1 [Compound 182]
4.68

Next compound up: CCNC(=O)Nc1ccc2ncc(-c3cccc(O)c3)nc2n1 [Compound 151]
5.54

Next compound up: CNC(=S)Nc1ccc2ncc(-c3ccc(N)cc3)nc2n1 [Compound 44]
5.82

Next compound up: CCNC(=O)Nc1ccc2ncc(Nc3cc(OC)cc(OC)c3)nc2n1 [Compound 180]
5.07

Next compound up: CCNC(=O)Nc1ccc2ncc(Nc3cnccn3)nc2n1 [Compound 181]
5.37

[a] CCNC(=O)Nc1ccc2ncc(Nc3cc(C(=O)O)cc(C(F)(F)F)c3)nc2n1 [Compound 189]
[b] CCNC(=O)Nc1ccc2ncc(Nc3ccc(F)cc3)nc2n1 [Compound 167]
Which item exceeds the other in pIC50, a or b ? Lab note: record the label of whichever item you select.
a
(a: 5.21, b: 4.56)
